Just for reference, ChEMBL document CHEMBL3885861 is where these values come from.

The entries below come with measured PL values attached.
# Organism: Rattus norvegicus
# ASSAY_PROTOCOL: Open TG-GATES - Regimen: Daily Repeat
# Assay type: toxicity, organism-based, Sprague-Dawley
# Parameters: regimen Daily Repeat, gender Male, age 6 weeks
# TEST_CONTEXT: in vivo, po, 1000 mg/kg, […], tissue Plasma, route gavage, dose level High, time 14 day
Return type: number; implicit unit mg/dL.

INSERT INTO results (compound, result) VALUES
  ('CC(S)C(=O)NCC(=O)O (centres undefined)', 125.4),
  ('CCCCNC(=O)NS(=O)(=O)c1ccc(C)cc1 [TOLBUTAMIDE]', 157.2),
  ('O=C(O)c1ccccc1Nc1ccccc1', 140.7);

Then this compound:
**Q:** Dear colleague, I am looking for the recorded PL of the following compound: CC(=O)[C@@]1(O)CC[C@H]2[C@@H]3C=C(Cl)C4=CC(=O)CC[C@]4(C)[C@H]3CC[C@@]21C
**A:** 171.2

----------
The entries below come with measured BUN values attached.
# Species on record: Rattus norvegicus
# ASSAY_PROTOCOL: Open TG-GATES - Regimen: Daily Repeat
# Type: toxicity, organism-based, Sprague-Dawley
# Parameters: regimen Daily Repeat, gender Male, age 6 weeks
# TEST_CONTEXT: in vivo, po, 0 mg/kg, 72 h, tissue Plasma, route gavage, dose level Control, time 3 day
Return type: number; implicit unit mg/dL.

INSERT INTO assay_data (molecule, result) VALUES
  ('Nc1ccc(Cc2ccc(N)cc2)cc1', 15.2);

**Q:** Dear colleague, I am looking for the recorded BUN of the following molecule: CN(C/C=C/C#CC(C)(C)C)Cc1cccc2ccccc12 [TERBINAFINE]
**A:** 14.4

**Q:** Queued: CCN(CC)C(=S)SSC(=S)N(CC)CC
**A:** 17.6

----------
# Organism: Rattus norvegicus
# ASSAY_PROTOCOL: Open TG-GATES - Regimen: Daily Repeat
# Format: toxicity, organism-based, Sprague-Dawley
# Parameters: regimen Daily Repeat, gender Male, age 6 weeks
# TEST_CONTEXT: in vivo, po, 1000 mg/kg, […], tissue Blood, route gavage, dose level High, time 28 day
The entries below come with measured MCV values attached.
Return type: number; implicit unit fL.

INSERT INTO measurements (compound, unit_of_measurement, result) VALUES
  ('CC(S)C(=O)NCC(=O)O (centres undefined)', 'fL', 54.5);

**Q:** Dear colleague, I am looking for the recorded MCV of the following compound: CCCCNC(=O)NS(=O)(=O)c1ccc(C)cc1 [TOLBUTAMIDE]
**A:** 55.6

**Q:** Queued: O=C(O)c1ccccc1Nc1ccccc1
**A:** 57.6

**Q:** Queued: CC(=O)[C@@]1(O)CC[C@H]2[C@@H]3C=C(Cl)C4=CC(=O)CC[C@]4(C)[C@H]3CC[C@@]21C
**A:** 52.1

----------
The entries below come with measured Lym values attached.
# Organism: Rattus norvegicus
# ASSAY_PROTOCOL: Open TG-GATES - Regimen: Single
# Format: toxicity, organism-based, Sprague-Dawley
# Parameters: regimen Single, gender Male, age 6 weeks
# TEST_CONTEXT: in vivo, po, 0 mg/kg, 9 h, tissue Blood, route gavage, dose level Control
Return type: number; implicit unit %.

INSERT INTO assay_data (molecule, unit_of_measurement, result) VALUES
  ('CCCCNC(=O)NS(=O)(=O)c1ccc(C)cc1 [TOLBUTAMIDE]', '%', 75.6),
  ('CCO', '%', 66),
  ('COc1ccc([C@@H]2Sc3ccccc3N(CCN(C)C)C(=O)[C@@H]2OC(C)=O)cc1', '%', 75.4),
  ('CN(CCOc1ccc(CC2SC(=O)NC2=O)cc1)c1ccccn1.O=C(O)/C=C\C(=O)O (centres undefined) [ROSIGLITAZONE MALEATE]', '%', 73.4),
  ('O=C(O)c1ccccc1Nc1ccccc1', '%', 75.4);

**Q:** Dear colleague, I am looking for the recorded Lym of the following molecule: CN(C)CCCN1c2ccccc2Sc2ccc(Cl)cc21
**A:** 78.8

**Q:** Queued: C=C[C@H]1C[N@@]2CC[C@H]1C[C@@H]2[C@@H](O)c1ccnc2ccc(OC)cc12
**A:** 79.4

**Q:** Queued: CN(C/C=C/C#CC(C)(C)C)Cc1cccc2ccccc12
**A:** 73.8

**Q:** Queued: NS(=O)(=O)c1cc(C(=O)O)c(NCc2ccco2)cc1Cl [FUROSEMIDE]
**A:** 79.6

**Q:** Queued: CC(S)C(=O)NCC(=O)O (centres undefined)
**A:** 81.6

**Q:** Queued: CC(=O)[C@@]1(O)CC[C@H]2[C@@H]3C=C(Cl)C4=CC(=O)CC[C@]4(C)[C@H]3CC[C@@]21C
**A:** 80

----------
# Species on record: Rattus norvegicus
# ASSAY_PROTOCOL: Open TG-GATES - Regimen: Single
# Assay type: toxicity, organism-based, Sprague-Dawley
# Parameters: regimen Single, gender Male, age 6 weeks
# TEST_CONTEXT: in vivo, po, 0 mg/kg, 9 h, tissue Plasma, route gavage, dose level Control
OBSERVABLE: LDH (IU/L)
Return type: number; implicit unit IU/L.

INSERT INTO measurements (molecule, observable, unit_of_measurement, result) VALUES
  ('C=C[C@H]1C[N@@]2CC[C@H]1C[C@@H]2[C@@H](O)c1ccnc2ccc(OC)cc12', 'LDH', 'IU/L', 136.6),
  ('COc1ccc([C@@H]2Sc3ccccc3N(CCN(C)C)C(=O)[C@@H]2OC(C)=O)cc1', 'LDH', 'IU/L', 71.8),
  ('COc1cc2ncnc(Nc3ccc(F)c(Cl)c3)c2cc1OCCCN1CCOCC1', 'LDH', 'IU/L', 169),
  ('CN(C/C=C/C#CC(C)(C)C)Cc1cccc2ccccc12', 'LDH', 'IU/L', 167.6);

**Q:** Dear colleague, I am looking for the recorded LDH of the following molecule: CN(C)CCCN1c2ccccc2Sc2ccc(Cl)cc21
**A:** 180.2

**Q:** Queued: CCCCNC(=O)NS(=O)(=O)c1ccc(C)cc1 [TOLBUTAMIDE]
**A:** 60.8

**Q:** Queued: O=C(O)c1ccccc1Nc1ccccc1
**A:** 70

**Q:** Queued: CC(=O)[C@@]1(O)CC[C@H]2[C@@H]3C=C(Cl)C4=CC(=O)CC[C@]4(C)[C@H]3CC[C@@]21C
**A:** 170

**Q:** Queued: CCN(CC)C(=S)SSC(=S)N(CC)CC
**A:** 130

**Q:** Queued: CN(CCOc1ccc(CC2SC(=O)NC2=O)cc1)c1ccccn1.O=C(O)/C=C\C(=O)O (centres undefined) [ROSIGLITAZONE MALEATE]
**A:** 85

**Q:** Queued: CC(S)C(=O)NCC(=O)O (centres undefined)
**A:** 147

**Q:** Queued: Nc1ccc(Cc2ccc(N)cc2)cc1
**A:** 58.2

**Q:** Queued: CCO
**A:** 74.6

**Q:** Queued: O=c1ccc2ccccc2o1
**A:** 82.2

----------
# Organism: Rattus norvegicus
# ASSAY_PROTOCOL: Open TG-GATES - Regimen: Daily Repeat
# Type: toxicity, organism-based, Sprague-Dawley
# Set-up: regimen Daily Repeat, gender Male, age 6 weeks
# TEST_CONTEXT: in vivo, po, 0 mg/kg, […], tissue Blood, route gavage, dose level Control, time 28 day
The entries below come with measured MCV values attached.
Return type: number; implicit unit fL.

Look over these answered cases.
INSERT INTO assay_data (smiles_string, unit_of_measurement, result) VALUES
  ('O=c1ccc2ccccc2o1', 'fL', 58.8),
  ('CCCCC1C(=O)N(c2ccccc2)N(c2ccccc2)C1=O', 'fL', 56.2),
  ('CN(C/C=C/C#CC(C)(C)C)Cc1cccc2ccccc12', 'fL', 57.8);

**Q:** Dear colleague, I am looking for the recorded MCV of the following compound: CC(=O)[C@@]1(O)CC[C@H]2[C@@H]3C=C(Cl)C4=CC(=O)CC[C@]4(C)[C@H]3CC[C@@]21C
**A:** 56.5

**Q:** Queued: CCN(CC)C(=S)SSC(=S)N(CC)CC
**A:** 57.5

**Q:** Queued: Nc1ccc(Cc2ccc(N)cc2)cc1
**A:** 57.2

----------
# Species on record: Rattus norvegicus
# ASSAY_PROTOCOL: Open TG-GATES - Regimen: Daily Repeat
# Type: toxicity, organism-based, Sprague-Dawley
# Design: regimen Daily Repeat, gender Male, age 6 weeks
# TEST_CONTEXT: in vivo, po, 100 mg/kg, […], tissue Plasma, route gavage, dose level Low, time 7 day
The entries below come with measured CRE values attached.
Return type: number; implicit unit mg/dL.

Look over these answered cases.
INSERT INTO measurements (molecule, observable, unit_of_measurement, result) VALUES
  ('CC(=O)[C@@]1(O)CC[C@H]2[C@@H]3C=C(Cl)C4=CC(=O)CC[C@]4(C)[C@H]3CC[C@@]21C', 'CRE', 'mg/dL', 0.2),
  ('O=C(O)c1ccccc1Nc1ccccc1', 'CRE', 'mg/dL', 0.2),
  ('CCCCNC(=O)NS(=O)(=O)c1ccc(C)cc1 [TOLBUTAMIDE]', 'CRE', 'mg/dL', 0.2);

**Q:** Dear colleague, I am looking for the recorded CRE of the following molecule: CC(S)C(=O)NCC(=O)O (centres undefined)
**A:** 0.1
